Values compiled from paper PMC3812353.

- ASSAYED SYSTEM: T1, MutS-IAANS (MutS-C42A/M88C) (Thermus aquaticus (printed as T. …, UniProt Q56215 1-811, C42A;M88C))
- T1 sequence: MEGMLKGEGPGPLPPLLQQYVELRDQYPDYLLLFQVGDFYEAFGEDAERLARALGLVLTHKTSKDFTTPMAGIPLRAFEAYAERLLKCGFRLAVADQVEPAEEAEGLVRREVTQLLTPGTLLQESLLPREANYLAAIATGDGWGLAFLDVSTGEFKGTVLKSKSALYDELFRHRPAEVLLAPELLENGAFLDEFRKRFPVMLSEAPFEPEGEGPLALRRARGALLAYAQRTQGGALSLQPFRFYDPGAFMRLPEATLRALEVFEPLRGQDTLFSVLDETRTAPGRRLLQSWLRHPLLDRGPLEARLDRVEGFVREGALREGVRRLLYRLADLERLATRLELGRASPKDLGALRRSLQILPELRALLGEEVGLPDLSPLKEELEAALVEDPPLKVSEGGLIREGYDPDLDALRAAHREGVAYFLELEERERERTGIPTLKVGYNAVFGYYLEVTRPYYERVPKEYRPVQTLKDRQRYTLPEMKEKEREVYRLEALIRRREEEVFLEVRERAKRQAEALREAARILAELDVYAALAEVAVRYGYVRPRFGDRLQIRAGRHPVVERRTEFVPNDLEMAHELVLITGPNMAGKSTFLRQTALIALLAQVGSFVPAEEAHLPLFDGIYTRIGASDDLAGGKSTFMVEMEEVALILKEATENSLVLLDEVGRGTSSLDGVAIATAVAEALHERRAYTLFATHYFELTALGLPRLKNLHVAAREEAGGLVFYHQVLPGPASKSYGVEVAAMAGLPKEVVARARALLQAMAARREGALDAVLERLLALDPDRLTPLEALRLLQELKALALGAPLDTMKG
- PROTOCOL SUMMARY: IAANS fluorescence quenching, equilibrium
pKd: −log10 of the molar value.
MEASUREMENT NAME: pKd

> print(dat)
                                     binder  measurement.name  result.number
1  DNA(+T) (dsDNA) DNA 1: ATGTGAATCAGTATGGTATATATCTGCTGAAGGAAAT DNA 2: ATTTCCTTCAGCAGATATTACCATACTGATTCACAT               pKd           7.66
